Tested on: Plasmodium falciparum NF54 gametocytes
PROCEDURE_DETAILS: viability index relative to DMSO control (fraction); higher = less gametocyte killing
EXPERIMENTAL_PARAMETERS: gametocyte stage: Stage II viability index; 12.5 µM; incubation time: 72 h
The following molecules are listed with their measured viability index values.
OUTCOME_MEASURE: viability index

[[record]]
molecule = "COc1ccc(CCN2C(=O)c3[nH]nc(-c4cc(Cl)c(C)cc4O)c3C2c2ccccc2F)cc1 (configuration not stated)"
outcome_measure = "viability index"
quantitative_result = 0.29

[[record]]
molecule = "CCCN(CCC)CCCNC(=O)c1cc2c(-c3ccc(OC)c(OC)c3)nn(C)c2s1"
outcome_measure = "viability index"
quantitative_result = 0.754

[[record]]
molecule = "Cc1ccc(C(=O)c2oc3ccc4c(C)cc(=O)oc4c3c2C)cc1"
outcome_measure = "viability index"
quantitative_result = 0.932

[[record]]
molecule = "COc1ccc(-c2cc(=O)oc3c4c(ccc23)OCN(Cc2ccc(F)cc2)C4)cc1"
outcome_measure = "viability index"
quantitative_result = 0.0833

[[record]]
molecule = "COc1ccc2nc(N)nc(C)c2c1"
outcome_measure = "viability index"
quantitative_result = 0.614

[[record]]
molecule = "COc1ccc(CCNC(=O)c2cc(S(=O)(=O)N3CC(C)CC(C)C3)ccc2Sc2ccc(F)cc2)cc1OC (configuration not stated)"
outcome_measure = "viability index"
quantitative_result = 0.445

[[record]]
molecule = "CNCCCNc1ccnc2cc(Cl)ccc12"
outcome_measure = "viability index"
quantitative_result = 0.291

[[record]]
molecule = "CCCN(CCC)CC(O)COc1ccccc1C(=O)Nc1ccccc1 (configuration not stated)"
outcome_measure = "viability index"
quantitative_result = 0.175

[[record]]
molecule = "CCOc1ccc(-c2nonc2NC(=O)c2cccc(C)c2)cc1OCC"
outcome_measure = "viability index"
quantitative_result = 0.0773

[[record]]
molecule = "CC1=C(CC(=O)c2cccc([N+](=O)[O-])c2)C(=O)c2ccccc2C1=O"
outcome_measure = "viability index"
quantitative_result = 0.00167

[[record]]
molecule = "Cc1cc(NC(=O)C2c3ccccc3C(=O)N(CC(C)C)C2c2cccs2)no1 (configuration not stated)"
outcome_measure = "viability index"
quantitative_result = 0.0193

[[record]]
molecule = "CCCc1c(C)nc2ccccc2c1O"
outcome_measure = "viability index"
quantitative_result = 0.705

[[record]]
molecule = "CCOc1ccccc1CN1CCc2nc3cc(C(C)(C)C)nn3c(O)c2C1"
outcome_measure = "viability index"
quantitative_result = 0.7

[[record]]
molecule = "Cc1cc(Nc2ccc3ccccc3c2)n2ncnc2n1"
outcome_measure = "viability index"
quantitative_result = 0.521

[[record]]
molecule = "Cc1ccc2c(C)nc(Nc3nc(C)cc(-c4ccccc4)n3)nc2c1"
outcome_measure = "viability index"
quantitative_result = 0.3

[[record]]
molecule = "c1ccc(Cn2c(N=Nc3c(Nc4ccccc4)ccc4ccccc34)nc3ccccc32)cc1"
outcome_measure = "viability index"
quantitative_result = 0.0106

[[record]]
molecule = "CC1CCCCN1CCCNC(=O)c1ccc2c(c1)sc1nc(-c3ccc(F)cc3)cn12 (configuration not stated)"
outcome_measure = "viability index"
quantitative_result = 0.443

[[record]]
molecule = "COc1cc(OC)cc(N2C(=O)N(Cc3ccc(C(C)(C)C)cc3)c3ccccc3S2(=O)=O)c1"
outcome_measure = "viability index"
quantitative_result = 0.96

[[record]]
molecule = "COc1ccc(-c2cc3c(nn2)-c2ccccc2C3=O)cc1"
outcome_measure = "viability index"
quantitative_result = 0.675

[[record]]
molecule = "CCOC(=O)C1=CN(C)C=C(C(=O)OCC)C1c1cc(Br)c(OCC)c(OC)c1"
outcome_measure = "viability index"
quantitative_result = 0.0216

[[record]]
molecule = "COc1ccc(CN2CCCC(C(=O)c3ccc(C(F)(F)F)cc3)C2)c(O)c1 (configuration not stated)"
outcome_measure = "viability index"
quantitative_result = 0.0866

[[record]]
molecule = "COc1ccc(CNC(=O)c2cc3c(=O)n4ccccc4nc3n(CCc3ccccc3)c2=N)cc1"
outcome_measure = "viability index"
quantitative_result = 0.499


Data provenance: the supplement of paper PMC4723716
